Target: T1, mouse nerve growth factor (muNGF) (Mus musculus, UniProt P01139)
T1 construct: mouse beta nerve growth factor; also called mouse NGF; murine NGF; source: bought: Biosensis (purified mouse NGF)
T1 sequence (P01139 122-241): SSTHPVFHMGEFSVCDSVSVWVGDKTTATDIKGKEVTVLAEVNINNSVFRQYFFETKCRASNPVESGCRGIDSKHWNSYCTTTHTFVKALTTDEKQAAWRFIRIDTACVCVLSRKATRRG
Test: ELISA; plates coated with NGF (0.1 ug/ml muNGF; canine NGF in Figure 2A), blocked with 5% BSA/PBS; CHO cell supernatants with canine anti-NGF IgG 1 h at room temperature in PBS/1% BSA; detected with rabbit anti-canine IgG-HRP
Settings: one partner purified
readout: binding result

{"binder": "caN-HCC1 + kLC1, caninised anti-NGF antibody with canine IgG heavy chain isotype C (antibody, V domains shown, caN heavy chain variable domain (first caninised alphaD11 VH); as the light chain variable domain of m1 (caN-kLC1); canine kappa light chain constant domain; Canine IgG-C, kappa; also called caN-HCC-kLC; type C anti-NGF antibody; source: CHO cells, transient transfection, supernatant; purified on Protein G) VH: EVQLVESGGDLVNPGGTLTLSCVVSGFSLTNNNVNWVRQALGRGLEWVGGVWAGGATDYNSALKSRLTITRDTSKSTVFLKMHSLQSEDTATYYCARDGGYSSSTLYAMDAWGQGTLVTVSS VL: DIVMTQSPASLSLSQGETVTITCRASEDIYNALAWYQQKPGQAPKLLIYNTDTLHTGVPSRFSGSGSGTDFSLTISSLEPEDVAVYYCQHYFHYPRTFGQGTKVELK", "value.reported": "binds"}
{"binder": "caN-HCA1 + kLC1, caninised anti-NGF antibody with canine IgG heavy chain isotype A (antibody, V domains shown, caN heavy chain variable domain (first caninised alphaD11 VH); as the light chain variable domain of m1 (caN-kLC1); canine kappa light chain constant domain; Canine IgG-A, kappa; also called caN-HCA + kLC; type A anti-NGF antibody; source: CHO cells, transient transfection, supernatant; purified using Protein L) VH: EVQLVESGGDLVNPGGTLTLSCVVSGFSLTNNNVNWVRQALGRGLEWVGGVWAGGATDYNSALKSRLTITRDTSKSTVFLKMHSLQSEDTATYYCARDGGYSSSTLYAMDAWGQGTLVTVSS VL: DIVMTQSPASLSLSQGETVTITCRASEDIYNALAWYQQKPGQAPKLLIYNTDTLHTGVPSRFSGSGSGTDFSLTISSLEPEDVAVYYCQHYFHYPRTFGQGTKVELK", "value.reported": "binds"}
{"binder": "caN-HCD2 + kLC1, caninised anti-NGF antibody with canine IgG heavy chain isotype D (antibody, V domains shown, caN heavy chain variable domain (first caninised alphaD11 VH); as the light chain variable domain of m1 (caN-kLC1); canine kappa light chain constant domain; Canine IgG-D, kappa; also called caN-HCD + kLC; ca-HCD2 + kLC1; source: CHO cells, transient transfection, supernatant; purified using Protein L) VH: EVQLVESGGDLVNPGGTLTLSCVVSGFSLTNNNVNWVRQALGRGLEWVGGVWAGGATDYNSALKSRLTITRDTSKSTVFLKMHSLQSEDTATYYCARDGGYSSSTLYAMDAWGQGTLVTVSS VL: DIVMTQSPASLSLSQGETVTITCRASEDIYNALAWYQQKPGQAPKLLIYNTDTLHTGVPSRFSGSGSGTDFSLTISSLEPEDVAVYYCQHYFHYPRTFGQGTKVELK", "value.reported": "binds"}
{"binder": "caN-HCB2 + kLC1, caninised anti-NGF antibody with canine IgG heavy chain isotype B (antibody, V domains shown, caN heavy chain variable domain (first caninised alphaD11 VH); as the light chain variable domain of m1 (caN-kLC1); canine kappa light chain constant domain; Canine IgG-B, kappa; also called caN-HCB-kLC; type B anti-NGF antibody; source: CHO cells, transient transfection, supernatant; purified on protein A) VH: EVQLVESGGDLVNPGGTLTLSCVVSGFSLTNNNVNWVRQALGRGLEWVGGVWAGGATDYNSALKSRLTITRDTSKSTVFLKMHSLQSEDTATYYCARDGGYSSSTLYAMDAWGQGTLVTVSS VL: DIVMTQSPASLSLSQGETVTITCRASEDIYNALAWYQQKPGQAPKLLIYNTDTLHTGVPSRFSGSGSGTDFSLTISSLEPEDVAVYYCQHYFHYPRTFGQGTKVELK", "value.reported": "binds"}

Recorded values, source paper PMC3834884.
